# targetDesc: IRAK4 protein (Homo sapiens)
# protocolDescription: IRAK4 Degradation Assay in THP-1 Cells (Western Blot)
# Type: cell-based
# Parameters: endogenous in cells; host or cells: THP-1 cells
# conditionSet: THP-1 cells, 24 hours, 0.0128 to 1000 nM, IRAK4 protein level by Western Blot; read-out: DC50
# Method: In a 6-well cell culture plate, an appropriate number of THP-1 cells were seeded. The plate was placed in a 5% CO2 incubator at 37°C for overnight culture. Then, the test compound's dimethyl sulfoxide solution was added, with the final concentration ranging from 0.0128 to 1000 nM. After continuous culture for 24 hours, the culture medium was removed, and the cells were collected in a 1.5 mL centrifuge tube. […] The supernatant was taken, and the level of IRAK4 protein was detected by Western Blot.
Exercise: for every item that follows, state its recorded DC50.
Note: unit nM is implicit; provide only the numeric part.

What does the data say about its DC50? Entry: Cn1c(=O)n(C2CCC(=O)NC2=O)c2cccc(C#CCOC3CCN(CCN4CCC5(Cc6cc(NC(=O)c7coc8cccnc78)c(N7CCC(CO)CC7)cc6O5)C4)CC3)c21 (centres unmarked) [Compound 23] 3.08

One more molecule: Cn1c(=O)n(C2CCC(=O)NC2=O)c2cccc(CN3CCC(CCN4CCC5(CC4)Oc4cc(NC(=O)c6cnn7cccnc67)c(N6CCC(CO)CC6)cc4O5)CC3)c21 (centres unmarked) [Compound 15] 2.22

One more molecule: COC1(CN2CCC3(CC2)Cc2cc(NC(=O)c4cnn5cccnc45)c(N4CCC(CO)CC4)cc2O3)CCN(c2cccc3c2n(C)c(=O)n3C2CCC(=O)NC2=O)CC1 (centres unmarked) [Example 79] 1.55

One more molecule: Cn1c(=O)n(C2CCC(=O)NC2=O)c2cccc(C3CCC(CN4CCC5(CC4)Cc4cc(NC(=O)c6cnn7cccnc67)c(N6CCC(CO)CC6)cc4O5)CC3)c21 (centres unmarked) [Example 98] 1.1

One more molecule: Cn1c(=O)n(C2CCC(=O)NC2=O)c2cccc(C#CCO[C@H]3CC[C@H](CN4CCC5(Cc6cc(NC(=O)c7coc8cccnc78)c(N7CCC(CO)CC7)cc6O5)C4)CC3)c21 (some centres unmarked) [Compound 54] 3.5

====

# targetDesc: IRAK4 protein (Homo sapiens)
# protocolDescription: IRAK4 Degradation Assay in THP-1 Cells (Western Blot)
# Type: cell-based
# Design: endogenous in cells; host or cells: THP-1 cells
# conditionSet: THP-1 cells, 24 hours, 0.0128 to 1000 nM, IRAK4 protein level by Western Blot; read-out: DC50
Rule: measured DC50 below 4 nM gets YES; anything equal to or greater than 4 nM gets NO.

Does the reported DC50 of the following compound sit strictly below 4 nM? Cn1c(=O)n(C2CCC(=O)NC2=O)c2cccc(CN3CCC(CCN4CCC5(CC4)Oc4cc(NC(=O)c6coc7cccnc67)c(N6CCC(CO)CC6)cc4O5)CC3)c21 (centres unmarked) [Compound 14] YES

One more compound: Cn1c(=O)n(C2CCC(=O)NC2=O)c2cccc(C#CCOCCNCCN3CCC4(CC3)Cc3cc(NC(=O)c5cnn6cccnc56)c(N5CCC(CO)CC5)cc3O4)c21 (centres unmarked) [Compound 59] YES

One more compound: Cn1c(=O)n(C2CCC(=O)NC2=O)c2cccc(C#CCO[C@H]3CC[C@@H](CN4CCC5(Cc6cc(NC(=O)c7cnn8cccnc78)c(N7CCC(CO)CC7)cc6O5)C4)CC3)c21 (some centres unmarked) [Compound 58] YES

One more compound: Cn1c(=O)n(C2CCC(=O)NC2=O)c2cccc(C#CCOC3CCN(CCN4CCC5(CC4)Cc4cc(NC(=O)c6coc7cccnc67)c(N6CCC(CO)CC6)cc4O5)CC3)c21 (centres unmarked) [Compound 21] YES

One more compound: O=C1CCC(N2C(=O)c3cc(F)c(N4CCC(CN5CCC6(CC5)Cc5cc(NC(=O)c7cnn8cccnc78)c(N7CCC(CO)CC7)cc5O6)CC4)cc3C2=O)C(=O)N1 (centres unmarked) [Example 97] NO

====

# targetDesc: IRAK4 protein (Homo sapiens, UniProt Q9NWZ3)
# Sequence (Q9NWZ3 whole entry): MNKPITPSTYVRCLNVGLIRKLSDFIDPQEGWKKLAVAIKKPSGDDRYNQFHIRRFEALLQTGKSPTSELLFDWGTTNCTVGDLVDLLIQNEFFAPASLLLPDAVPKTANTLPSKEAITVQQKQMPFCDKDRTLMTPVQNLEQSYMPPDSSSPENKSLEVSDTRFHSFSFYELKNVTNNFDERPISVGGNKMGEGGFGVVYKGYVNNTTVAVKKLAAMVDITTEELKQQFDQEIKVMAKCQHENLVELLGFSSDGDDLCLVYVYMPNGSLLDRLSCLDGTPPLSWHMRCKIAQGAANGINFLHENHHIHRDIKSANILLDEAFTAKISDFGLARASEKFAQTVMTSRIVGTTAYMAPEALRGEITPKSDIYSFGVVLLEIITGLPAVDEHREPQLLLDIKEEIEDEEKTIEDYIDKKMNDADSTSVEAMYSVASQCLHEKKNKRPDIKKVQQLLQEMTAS
# protocolDescription: IRAK4 Degradation Assay in THP-1 Cells (Western Blot)
# Assay type: cell-based
# Design: endogenous in cells; host or cells: THP-1 cells
# conditionSet: THP-1 cells, 24 hours, 0.0128 to 1000 nM, IRAK4 protein level by Western Blot; read-out: Dmax%
Exercise: for every item that follows, state its recorded Dmax.
Note: unit % is implicit; provide only the numeric part.

What does the data say about its Dmax? Entry: Cn1c(=O)n(C2CCC(=O)NC2=O)c2cccc(C#CCO[C@H]3CC[C@H](CN4CCC5(CC4)Cc4cc(NC(=O)c6cnn7cc(C#N)cnc67)c(N6CCC(CO)CC6)cc4O5)CC3)c21 (some centres unmarked) [Example 87] 90

One more compound: Cn1c(=O)n(C2CCC(=O)NC2=O)c2cccc(C#CCO[C@H]3CC[C@H](CN4CCC5(CC4)Cc4cc(NC(=O)c6cnn7cc(F)cnc67)c(N6CCC(CO)CC6)cc4O5)CC3)c21 (some centres unmarked) [Compound 38] 88.8

One more compound: COCC1CCN(c2cc3c(cc2NC(=O)c2cnn4cccnc24)CC2(CCN(C[C@H]4CC[C@H](OCC#Cc5cccc6c5n(C)c(=O)n6C5CCC(=O)NC5=O)CC4)CC2)O3)CC1 (some centres unmarked) [Compound 44] 84.9

One more compound: Cn1c(=O)n(C2CCC(=O)NC2=O)c2cccc(C#CCO[C@H]3CC[C@H](CN4CCC5(CC4)Cc4cc(NC(=O)c6cnc7cccnn67)c(N6CCC(CO)CC6)cc4O5)CC3)c21 (some centres unmarked) [Compound 45] 87.4

One more compound: Cn1c(=O)n(C2CCC(=O)NC2=O)c2cccc(CN3CCC(CCN4CCC5(CC4)Cc4cc(NC(=O)c6cnn7cccnc67)c(N6CCN(CC(F)F)CC6)cc4O5)CC3)c21 (centres unmarked) [Compound 6] 85.1

====

# protocolDescription: Pharmacokinetic study in mice
# Assay type: in vivo
# conditionSet: mouse, po; male mice, p.o. (10 mg/kg), plasma
readoutType: Tmax (h)
Note: unit h is implicit; provide only the numeric part.

What does the data say about its Tmax? Entry: Cn1nc(N2CCC(=O)NC2=O)c2cc(F)c(N3CCC(O)(CC(=O)N4CCC5(CC4)Cc4cc(NC(=O)c6cnn7cccnc67)c(N6CCC(CO)CC6)cc4O5)CC3)cc21 [Example 77] 1

One more compound: Cn1c(=O)n(C2CCC(=O)NC2=O)c2cccc(C#CCO[C@H]3CC[C@H](CN4CCC5(CC4)Cc4cc(NC(=O)c6cnn7cc(F)cnc67)c(N6CCC(CO)CC6)cc4O5)CC3)c21 (some centres unmarked) [Compound 38] 4

One more compound: Cn1c(=O)n(C2CCC(=O)NC2=O)c2cccc(C#CCO[C@H]3CC[C@H](CN4CCC5(CC4)Cc4cc(NC(=O)c6coc7cccnc67)c(N6CCC(CO)CC6)cc4O5)CC3)c21 (some centres unmarked) [Compound 35] 2

One more compound: Cn1c(=O)n(C2CCC(=O)NC2=O)c2cccc(C#CCO[C@H]3CC[C@H](CN4CCC5(CC4)Cc4cc(NC(=O)c6cnc7cccnn67)c(N6CCC(CO)CC6)cc4O5)CC3)c21 (some centres unmarked) [Compound 45] 2

One more compound: Cn1c(=O)n(C2CCC(=O)NC2=O)c2cccc(CN3CCC(CCN4CCC5(CC4)Oc4cc(NC(=O)c6cnn7cccnc67)c(N6CCC(CO)CC6)cc4O5)CC3)c21 (centres unmarked) [Compound 15] 6

====

# targetDesc: IRAK4 protein (Homo sapiens, UniProt Q9NWZ3)
# protocolDescription: IRAK4 Degradation Assay in THP-1 Cells (Western Blot)
# Assay type: cell-based
# Design: endogenous in cells; host or cells: THP-1 cells
# conditionSet: THP-1, THP-1 cells, 24 hours, 0.0128 to 1000 nM, IRAK4 protein level by Western Blot; read-out: Dmax%
Rule: measured Dmax below 90% gets fulfilled; anything equal to or greater than 90% gets not fulfilled.

Does the reported Dmax of the following compound sit strictly below 90%? Cn1c(=O)n(C2CCC(=O)NC2=O)c2cccc(N3CCC(CN4CCC5(CC4)Cc4cc(NC(=O)c6cnn7cccnc67)c(N6CCC(CO)CC6)cc4O5)CC3)c21 (stereo not shown) not fulfilled

One more compound: O=C1CCC(N2C(=O)c3ccc(N4CCC(CN5CCC6(CC5)Cc5cc(NC(=O)c7cnn8cccnc78)c(N7CCC(CO)CC7)cc5O6)CC4)cc3C2=O)C(=O)N1 (stereo not shown) fulfilled

One more compound: `Cn1nc(N2CCC(=O)NC2=O)c2cccc(CN3CCC(CCN4CCC5(CC4)Cc4cc(NC(=O)c6coc7cccnc67)c(N6CCC(CO)CC6)cc4O5)CC3)c21` fulfilled

One more compound: `Cn1nc(N2CCC(=O)NC2=O)c2cc(F)c(N3CCC(O)(CC(=O)N4CCC5(CC4)Cc4cc(NC(=O)c6cnn7cccnc67)c(N6CCC(CO)CC6)cc4O5)CC3)cc21` fulfilled

One more compound: Cn1c(=O)n(C2CCC(=O)NC2=O)c2cccc(C#CCO[C@H]3CC[C@H](C(=O)N4CCC5(CC4)Cc4cc(NC(=O)c6cnn7cccnc67)c(N6CCC(CO)CC6)cc4O5)CC3)c21 (relative stereo) fulfilled

One more compound: Cn1c(=O)n(C2CCC(=O)NC2=O)c2cccc(C3CC(CN4CCC5(CC4)Cc4cc(NC(=O)c6cnn7cccnc67)c(N6CCC(CO)CC6)cc4O5)C3)c21 (stereo not shown) fulfilled
